- Test system: MCF7 breast
- assayName: NCI-60 one-dose screen, 48 h (100 = growth as untreated, 0 = no growth, -100 = all killed)
- experimentalParameters: 10 µM unless noted
The panel holds about 83,000 compounds, 20% with a hit somewhere; the sample as a whole holds those more often.
# note: boundary value 90% maps to Condition not met; growth below it maps to Condition met

Check out these entries, answers already filled in.
{"compound": "Clc1nc(Cl)c2c3c(sc2n1)CCCC3", "classLabel": "Condition met"}
{"compound": "COc1ccc2[nH]c(=O)c(/C=C/C(=O)c3ccc(Nc4nccc(-c5ccc6ccccc6c5)n4)cc3)cc2c1", "classLabel": "Condition not met"}
{"compound": "CCCCCn1cnc2c(=S)nc[nH]c21", "classLabel": "Condition not met"}

Query string: Confirm or reject: growth of C=C1CCC2C3(C)COC(c4ccc(OC)cc4Br)OC3CCC2(C)C1/C=C/C1=CCOC1=O (stereo not drawn) lies strictly below 90%
Result string: Condition met

Query string: Confirm or reject: growth of C=C1CC[C@@H]2[C@](C)(COC(C)=O)[C@H](OC(C)=O)CC[C@@]2(C)[C@@H]1CC(NCc1ccc(F)cc1)C1=CCOC1=O (stereo partly drawn) lies strictly below 90%
Result string: Condition met

Query string: Confirm or reject: growth of c1ccc(-c2nc(N3CCOCC3)c3c4c(sc3n2)CCCCC4)nc1 lies strictly below 90%
Result string: Condition met

Query string: Confirm or reject: growth of COc1nc2c(cc1S(=O)(=O)c1ccccc1)CCc1c-2cnn1-c1ccc(Cl)cc1 lies strictly below 90%
Result string: Condition not met

Query string: Confirm or reject: growth of O=C1Nc2ccccc2/C1=C/C(=N/c1nnc(-c2ccc(Cl)cc2)s1)c1ccccc1 lies strictly below 90%
Result string: Condition met

Query string: Confirm or reject: growth of Cc1ccc(/C=C2\Oc3cc(OCC(=O)c4ccc(Cl)cc4)ccc3C2=O)cc1 lies strictly below 90%
Result string: Condition not met

Query string: Confirm or reject: growth of COc1ccccc1N1CCN(CCn2c(=O)c3c(c4ccccc4n3C)n(C)c2=O)CC1 lies strictly below 90%
Result string: Condition not met

====

- Test system: SK-OV-3 ovarian
- assayName: NCI-60 one-dose screen, 48 h
- experimentalParameters: 10 µM unless noted
Compounds without any hit were thinned out: in the full panel of roughly 83,000, 20% have a hit. Activity calls are given as the source filed them. The calls were made as follows: active = growth percent below 10; inactive = the rest.
Select the correct class. Options are active, inactive and nothing else.

{"molecule": "O=C(O)c1c([N+](=O)[O-])cnc2ccccc12", "classLabel": "inactive"}
{"molecule": "O=C1C=CC(Nc2ccccc2[N+](=O)[O-])C1Nc1ccccc1[N+](=O)[O-] (centres undefined)", "classLabel": "inactive"}
{"molecule": "O=C(O)c1cccnc1Br", "classLabel": "inactive"}
{"molecule": "Cc1ccc(Nc2c(C(N)=O)cnc3ccc(-c4csc(N)n4)cc23)cc1", "classLabel": "inactive"}
{"molecule": "C/C(Cc1ccc(Cl)cc1)=C(\\c1ccc(OCCN2CCCCCC2)cc1)c1ccc(OC(=O)C2CCCCC2)cc1", "classLabel": "inactive"}
{"molecule": "Cc1ccc2c(c1)n([O-])c1cc(Cl)ccc1[n+]2=O", "classLabel": "inactive"}
{"molecule": "O=C(O)c1cccc2c1-c1ccccc1C2=O", "classLabel": "inactive"}
{"molecule": "Clc1nc(Cl)c2c3c(sc2n1)CCCC3", "classLabel": "inactive"}
{"molecule": "CC/C=C\\C[C@H](F)C/C=C1/C(=O)C=C[C@@H]1C/C=C\\CCCC(=O)OC", "classLabel": "inactive"}
{"molecule": "CC[C@]12C=CCN3CC[C@@]4(c5ccc(OC)cc5N(C)[C@H]4[C@@](O)(C(=O)OC)[C@@H]1OC(=O)CCC(=O)N[C@@H](Cc1c[nH]c4ccccc14)C(=O)OC)[C@@H]32", "classLabel": "inactive"}

Query string: Per the assay record, what outcome was assigned to O=C(Nc1ccc(Oc2ccc(F)cc2)c(Cl)c1)c1cccnc1 ?
Result string: inactive

Query string: Per the assay record, what outcome was assigned to CCCCCCCCCCNC(=O)CCl ?
Result string: inactive

Query string: Per the assay record, what outcome was assigned to CN(C)c1ccc(C2Nc3ccccc3-n3cccc32)cc1 (centres undefined) ?
Result string: inactive

Query string: Per the assay record, what outcome was assigned to C=C1CCC2C3(C)COC(C)(C)OC3CCC2(C)C1C/C=C1/C(=O)OCC1OC(C)=O (centres undefined) ?
Result string: inactive

Query string: Per the assay record, what outcome was assigned to CC/C=C\C[C@H](F)C/C=C1/C(=O)C=C[C@@H]1C/C=C\CCCC(=O)O ?
Result string: inactive

Query string: Per the assay record, what outcome was assigned to Cc1cc(-c2nc3ccccc3s2)ccc1NC(=O)COc1ccc(Cl)cc1 ?
Result string: inactive

Query string: Per the assay record, what outcome was assigned to CN[C@@]12CC3(C=CC(=O)C=C3)O[C@]1(Cc1ccc(OC)cc1)N(C)C(=O)N2 ?
Result string: inactive

Query string: Per the assay record, what outcome was assigned to CC(C)(C)n1cc(-c2ccnc(NCCNS(=O)(=O)c3ccccc3)c2)c(-c2cccc(O)c2)n1 ?
Result string: inactive

Query string: Per the assay record, what outcome was assigned to COc1ccc(CCN2CC=Cn3c2nc2ccccc2c3=O)cc1 ?
Result string: inactive

Query string: Per the assay record, what outcome was assigned to COc1cc(/C=N/N(C)C)ccc1O ?
Result string: inactive

Query string: Per the assay record, what outcome was assigned to Brc1cccc(-c2nc(-c3ccc4c(c3)OCCO4)co2)c1 ?
Result string: inactive

Query string: Per the assay record, what outcome was assigned to COC(=O)C12C3C(=O)N(c4ccc(OC)cc4)C(=O)C3C(c3cn(-c4ccccc4)nc3C)N1[C@H](c1cn(-c3ccccc3)nc1C)[C@@H]1C(=O)N(c3ccc(OC)cc3)C(=O)[C@@H]12 (some centres undefined) ?
Result string: inactive

Query string: Per the assay record, what outcome was assigned to CC(=O)/C(=C/c1cccc(Cl)c1)C(=O)c1ccccc1 ?
Result string: inactive

Query string: Per the assay record, what outcome was assigned to CCC(=O)OCc1cccc(OC)c1 ?
Result string: inactive

Query string: Per the assay record, what outcome was assigned to Cc1ccn2c(-c3csc(Nc4cccc(O)c4)n3)c(C)nc2c1 ?
Result string: active

Query string: Per the assay record, what outcome was assigned to O=C1c2cccnc2C(=O)c2c1c(C(=O)OCCN1CCCCC1)c1ccccn21 ?
Result string: active

Query string: Per the assay record, what outcome was assigned to C=C1CC2(OC1=O)C(=O)Nc1ccccc12 (centres undefined) ?
Result string: inactive

Query string: Per the assay record, what outcome was assigned to COc1ccc(-c2cc(-c3cccnc3)nc3sc4c(=O)n(-c5ccc(C)cc5)cnc4c23)cc1OC ?
Result string: inactive
